system: LNCaP; experiment: Antiproliferative activity against human LNCAP cells assessed as reduction in cell viability after 96 hrs by MTT assay; type: functional, cell-based
MEASUREMENT NAME: IC50

Worked set:
> print(dat)
                                   compound  measurement.target  recorded.result
1  CC(CSc1ccc(C(F)(F)F)cc1)C(=O)Nc1ccc([N+](=O)[O-])c(C(F)(F)F)c1 (racemic)               LNCaP          4.41 µM
2  CC(CSc1ccc(C(F)(F)F)cc1)(Sc1ccc(C(F)(F)F)cc1)C(=O)Nc1ccc(C#N)c(C(F)(F)F)c1 (racemic)               LNCaP          1.68 µM
3  CC(CSc1cc(C(F)(F)F)cc(C(F)(F)F)c1)(Sc1cc(C(F)(F)F)cc(C(F)(F)F)c1)C(=O)Nc1ccc([N+](=O)[O-])cc1C(F)(F)F (racemic)               LNCaP          0.43 µM

Now for the compound whose IC50 we want.
*Q* What IC50 value was documented for this compound, CC(CSc1ccc(F)cc1)C(=O)Nc1ccc([N+](=O)[O-])cc1C(F)(F)F (racemic) ?
*A* 43.2 µM

Values compiled from ChEMBL document CHEMBL4339184.
